Biological target: T1, hAPLNR (Homo sapiens, UniProt P35414)
T1 sequence (P35414 1-380): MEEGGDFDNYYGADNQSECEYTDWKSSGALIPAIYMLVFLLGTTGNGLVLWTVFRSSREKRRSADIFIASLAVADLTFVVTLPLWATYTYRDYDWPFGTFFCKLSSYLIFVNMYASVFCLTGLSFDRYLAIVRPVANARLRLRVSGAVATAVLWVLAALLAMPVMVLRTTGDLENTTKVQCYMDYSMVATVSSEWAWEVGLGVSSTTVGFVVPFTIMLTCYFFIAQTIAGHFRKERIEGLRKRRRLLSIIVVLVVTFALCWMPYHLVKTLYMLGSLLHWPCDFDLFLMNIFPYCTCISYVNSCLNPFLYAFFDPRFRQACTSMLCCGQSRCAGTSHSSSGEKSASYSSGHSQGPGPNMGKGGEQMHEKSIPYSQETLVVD
Assay: CRE-luciferase cyclic AMP assay, activation of hAPLNR (inhibition of Forskolin-induced cAMP) in HEK293/CRE-luc/hAPLNR cells
Format: cell-based
Set-up: expressed in transfected cells
Conditions: Table 6A; without Apelin; % of maximum Apelin activation
observation type: % Activation at 100 nM mAb (at 10 uM Forskolin)

# example entries with known answers
H2aM9227N: anti-APLNR antibody, HCVR/LCVR SEQ ID NO: 50/58, mouse IgG2a Fc (antibody, V domains shown, mouse IgG2a Fc) VH: EVQLVESGGGLVQPGGSLRLSCAASGFTFSSFWMSWVRQVPGKGLEWVANIKQDGSEKYYVDSVKGRFTISRDNAKNSLYLQMNSLRAEDTAVYYCARDRFGYSFYDKGVRYYYGMDVWGQGTTVTVSS VL: DIQMTQSPSSLSVSVGDRVTITCRASQGIRNDLGWYQQKPGKAPKRLIYATSSLQSGVPSRFSGSGSGTEFTLTISGLQPEDFATYYCLQHNSYPRTFGQGTKVEIK | 12%
H2aM9230N: anti-APLNR antibody, HCVR/LCVR SEQ ID NO: 82/90, mouse IgG2a Fc (antibody, V domains shown, mouse IgG2a Fc) VH: EVQLVESGGGLVQPGGSLRLSCAASGFTFSSFWMSWVRQVPGKGLQWVANIKQDGSEKYYVDSVKGRFTISRDNAKNSLYLQMNSLRAEDTAVYYCARDRFGYSVYDKGVRYYYGMDVWGQGTTVTVSS VL: DIQMTQSPSSLSVSVGDRVTITCRASQGIRNDLGWYQQKPGKAPKRLIYAASSLQSGVPSRFSGSGSGTEFTLTISGLQSEDFATYYCLQHKSYPRTFGQGTKVEIK | No Activation
H2aM9222N: anti-APLNR antibody, HCVR/LCVR SEQ ID NO: 34/42, mouse IgG2a Fc (antibody, V domains shown, mouse IgG2a Fc) VH: EVQLVESGGGLVQPGGSLRLSCAASGFTFSNYWMSWVRQAPGKGLEWVANIKQDGSERYYVGSVKGRFTISRGDAENSLYLQMNSLRAEDTAVYYCARDRFGYSAYDKGVRYYYGMDVWGQGTTVTVSS VL: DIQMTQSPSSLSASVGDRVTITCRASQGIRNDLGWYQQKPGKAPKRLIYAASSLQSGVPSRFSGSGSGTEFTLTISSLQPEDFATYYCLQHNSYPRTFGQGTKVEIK | No Activation
H2aM9232N: antagonistic anti-APLNR antibody, HCVR/LCVR SEQ ID NO: 98/106, mouse IgG2a Fc (antibody, V domains shown, mouse IgG2a Fc) VH: QVKLVESGGGVVQPGRSLRLSCAASGFTFSNYVIHWVRQAPGKGLEWVAVIWYDGSNKYYADSVKGRFTISRDNSKNTLYLQMNSLRAEDTAVYYCARDRVVRGVDYYYYYGLDVWGQGTSVTVSS VL: EIVMTQSPATLSVSPGERATLSCRASQSVRSNLAWYQQKPGQAPRLLIYGASSRATGIPARFSGTGSGTEFTLTISSLQSDDFAVYYCQQYNKWPRTFGQGTKVEIK | No Activation

Prompt: So what does the record say about % Activation at 100 nM mAb (at 10 uM Forskolin) for H1M9207N: anti-APLNR antibody, HCVR/LCVR SEQ ID NO: 2/10, mouse IgG1 Fc (antibody, V domains shown, mouse IgG1 Fc) VH: EVQLVESGGGLAQPGGSLRLSCAASGFTFSNYWMSWVRQAPGKGLEWVANIKQDGSEKYYLESVKGRFTISRDNAKNLLYLQMNSLRAEDTAVFYCARPGLLRFLEPGRRYYSGMNVWGQGTTVTVSS VL: DIQLTQSPSFLSASVGDRVTITCWASQGIRSYLAWYQQKPGKAPKLLIYAASTLQSGVPSRFSGSGSGTEFTLTISSLQPEDFATYYCQQFNSYPWTFGQGTKVEIK ?
Response: No Activation

Values compiled from patent US10155811B2.
